Tested on: HeLa cells
test-description: Comet assay with endonuclease III, oxidative DNA damage
Format: cell-based, human
assay-conditions: 50 µM, net damage recognised by Endo III (oxidative DNA damage)
Marks after values point to notes of the source that are not given here.
Reported Mean DNA (%) in Comet Tail (±S.E.M.) of HeLa Cells, Endo III by item:

Below: 5 compounds and their reported Mean DNA (%) in Comet Tail (±S.E.M.) of HeLa Cells, Endo III.
{"compound": "COc1ccc(C2CC(=NNC(=O)c3ccncc3)c3c(O)cc(O)cc3O2)cc1O (centres unmarked)", "assay-value": "5.3 ± 3.5 ^a %"}
{"compound": "COc1ccc(C2CC(=NNC(=O)c3ccccc3)c3c(O)cc(O)cc3O2)cc1O (centres unmarked)", "assay-value": "7.5 ± 3.9 ^a %"}
{"compound": "COc1ccc(C2C/C(=N\\NC(N)=S)c3c([O][Cu][O]C(C)=O)cc(O)cc3O2)cc1O (centres unmarked)", "assay-value": "11.6 ± 1.9 ^a %"}
{"compound": "COc1ccc(C2C/C(=N\\NC(=O)c3ccccc3)c3c([O][Cu][O]C(C)=O)cc(O)cc3O2)cc1O (centres unmarked)", "assay-value": "8.3 ± 2.7 ^a %"}
{"compound": "N.N.[Cl][Pt][Cl] [cisplatin, reference compound]", "assay-value": "26.5 ± 3.9%"}

Per the records, this compound ( OO [hydrogen peroxide, reference compound] ) has Mean DNA (%) in Comet Tail (±S.E.M.) of HeLa Cells, Endo III equal to 26.2% ± 4.6%

Per the records, this compound ( COc1ccc(C2C/C(=N\NC(=O)c3ccncc3)c3c([O][Cu][O]C(C)=O)cc(O)cc3O2)cc1O (centres unmarked) ) has Mean DNA (%) in Comet Tail (±S.E.M.) of HeLa Cells, Endo III equal to 12.2 ± 4.2 ^a %

Per the records, this compound ( COc1ccc(C2CC(=NNC(N)=S)c3c(O)cc(O)cc3O2)cc1O (centres unmarked) ) has Mean DNA (%) in Comet Tail (±S.E.M.) of HeLa Cells, Endo III equal to 10.2 ± 2.0 ^a %

###

Test system: HeLa cells
test-description: Neutral comet assay, DNA double-strand breaks (DSBs)
Type: cell-based, human
assay-conditions: 50 µM
Marks after values point to notes of the source that are not given here.
Reported Mean DNA (%) in Comet Tail (±S.E.M.) of HeLa Cells, DSBs by item:

Below: 5 compounds and their reported Mean DNA (%) in Comet Tail (±S.E.M.) of HeLa Cells, DSBs.
{"compound": "COc1ccc(C2C/C(=N\\NC(N)=S)c3c([O][Cu][O]C(C)=O)cc(O)cc3O2)cc1O (stereo not drawn)", "assay-value": "6.4 ± 2.3 ^a,c %"}
{"compound": "COc1ccc(C2C/C(=N\\NC(=O)c3ccccc3)c3c([O][Cu][O]C(C)=O)cc(O)cc3O2)cc1O (stereo not drawn)", "assay-value": "14.4 ± 0.7 ^a,b %"}
{"compound": "COc1ccc(C2CC(=NNC(N)=S)c3c(O)cc(O)cc3O2)cc1O (stereo not drawn)", "assay-value": "13.5 ± 0.7 ^a,c %"}
{"compound": "N.N.[Cl][Pt][Cl] [cisplatin, reference compound]", "assay-value": "30.2 ± 3.4%"}
{"compound": "COc1ccc(C2CC(=NNC(=O)c3ccncc3)c3c(O)cc(O)cc3O2)cc1O (stereo not drawn)", "assay-value": "19.5 ± 0.7 ^a %"}

We next turn to a different compound, shown below.
Per the records, this compound ( COc1ccc(C2C/C(=N\NC(=O)c3ccncc3)c3c([O][Cu][O]C(C)=O)cc(O)cc3O2)cc1O (stereo not drawn) ) has Mean DNA (%) in Comet Tail (±S.E.M.) of HeLa Cells, DSBs equal to 7.7 ± 3.6 ^a %

Cited source: paper PMC9821237
